The measurements presented in this section are drawn from patent US20100203614A1.

test system: MBP-FALDR enzyme (maltose binding protein-fatty aldehyde reductase fusion protein); assay: Continuous spectrophotometric assay of fatty aldehyde reductase activity (NADPH oxidation at 340 nm), substrate comparison and kinetics; type: biochemical, Marinobacter aquaeolei VT8; settings: compared with decanal, substrate 100 μg/mL
property: substrate activity in words

CCCC=O no apparent activity
CCCCCC=O no apparent activity
O=Cc1ccccc1 no apparent activity
